// data source = ChEMBL document CHEMBL4842397

biological target: Phosphatidylinositol 4,5-bisphosphate 3-kinase catalytic subunit alpha isoform (Homo sapiens, UniProt P42336); assay: Inhibition of PI3Kalpha (unknown origin) by ADP-Glo assay
Sequence (P42336 whole entry, canonical isoform): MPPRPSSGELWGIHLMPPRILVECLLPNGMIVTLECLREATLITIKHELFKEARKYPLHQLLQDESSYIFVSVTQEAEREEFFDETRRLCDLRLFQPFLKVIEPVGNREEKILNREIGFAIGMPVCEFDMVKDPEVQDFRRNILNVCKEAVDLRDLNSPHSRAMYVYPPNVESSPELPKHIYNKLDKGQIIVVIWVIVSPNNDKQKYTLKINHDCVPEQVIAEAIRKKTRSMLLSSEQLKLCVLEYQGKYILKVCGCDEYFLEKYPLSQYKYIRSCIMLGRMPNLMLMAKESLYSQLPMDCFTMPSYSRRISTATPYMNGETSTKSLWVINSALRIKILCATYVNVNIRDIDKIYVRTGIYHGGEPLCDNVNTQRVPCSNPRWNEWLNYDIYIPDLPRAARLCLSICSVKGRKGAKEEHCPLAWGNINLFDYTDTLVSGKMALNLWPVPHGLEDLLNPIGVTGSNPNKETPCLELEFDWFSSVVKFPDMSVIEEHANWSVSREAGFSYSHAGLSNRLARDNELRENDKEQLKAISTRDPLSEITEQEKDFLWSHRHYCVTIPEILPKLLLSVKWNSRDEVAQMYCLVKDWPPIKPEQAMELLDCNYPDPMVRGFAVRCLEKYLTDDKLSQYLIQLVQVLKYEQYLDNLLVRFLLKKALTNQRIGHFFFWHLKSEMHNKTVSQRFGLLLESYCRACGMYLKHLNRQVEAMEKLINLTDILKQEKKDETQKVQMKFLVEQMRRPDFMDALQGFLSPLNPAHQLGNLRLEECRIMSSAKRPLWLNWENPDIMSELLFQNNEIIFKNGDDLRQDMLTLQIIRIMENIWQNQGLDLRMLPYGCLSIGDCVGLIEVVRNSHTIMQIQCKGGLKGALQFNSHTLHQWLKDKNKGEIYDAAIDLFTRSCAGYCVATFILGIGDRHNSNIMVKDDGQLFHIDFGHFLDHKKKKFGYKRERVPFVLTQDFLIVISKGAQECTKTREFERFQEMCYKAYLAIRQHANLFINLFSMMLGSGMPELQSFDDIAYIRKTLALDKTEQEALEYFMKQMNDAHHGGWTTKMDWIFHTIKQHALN
OBSERVED_PROPERTY: log10(IC50) (log10 of the value in nM)
Kindly note that the scale is log10 and the underlying IC50 is in nM.

Consider the worked cases shown below.
[[record]]
smiles_notation = "COc1ncc2cc1NS(=O)(=O)c1cccc(c1)C(=O)NC[C@@H]1CCN(C1)c1ncnc3c1SC2=C3C"
reported_result = 0.49

[[record]]
smiles_notation = "COc1ncc2cc1NS(=O)(=O)c1cccc(c1)C(=O)NC[C@@H]1CN(CCO1)c1ncnc3c1SC2=C3C"
reported_result = -0.18

[[record]]
smiles_notation = "COc1ncc(-c2sc3c(-c4cccs4)ncnc3c2C)cc1NS(=O)(=O)c1ccccc1"
reported_result = 1.56

[[record]]
smiles_notation = "COc1ncc2cc1NS(=O)(=O)c1cccc(c1)C(=O)NCc1cncc(c1)-c1ncnc3c1SC2=C3C"
reported_result = 1.28

[[record]]
smiles_notation = "COc1ncc2cc1NS(=O)(=O)c1cccc(c1)C(=O)NCc1cc(ccn1)-c1ncnc3c1SC2=C3"
reported_result = 1.70


Request: # get_value(readout='log10(IC50)', item= `COc1ccc2cc1C(=O)NCC1=CC=C(S1)c1ncnc3c1SC(=C3)c1cnc(OC)c(c1)NS2(=O)=O` )
Result: 0.84

Request: What value of log10(IC50) has been reported for the following compound? `COc1ncc2cc1NS(=O)(=O)c1ccc(F)c(c1)C(=O)NCC1=CC=C(S1)c1ncnc3c1SC2=C3C`
Result: -0.89

====

experiment: Clearance in BALB/c mouse at 1 mg/kg, iv; format: ADME, organism-based; settings: in vivo
OBSERVED_PROPERTY: clearance (mL/min/kg)
Write it as a number; the unit mL/min/kg goes unstated.

Request: Fill in: clearance of `COc1ncc2cc1NS(=O)(=O)c1cccc(c1)C(=O)NCC1=CC=C(S1)c1ncnc3c1SC2=C3C` is ___
Result: 1
